# tested_on: T1, hIL10Rb-his (Sino Biological, Catalog#10945) (human, UniProt Q08334 20-220)
# T1 construct: Bought; also called Sino Biological cat#10945-H08H; not shown: C-terminal poly-His tag
# T1 sequence: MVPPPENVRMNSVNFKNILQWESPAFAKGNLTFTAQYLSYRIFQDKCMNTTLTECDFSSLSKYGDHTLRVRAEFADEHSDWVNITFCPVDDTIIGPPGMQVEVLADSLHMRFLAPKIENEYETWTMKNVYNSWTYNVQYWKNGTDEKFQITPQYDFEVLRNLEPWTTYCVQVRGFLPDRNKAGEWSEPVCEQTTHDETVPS
# assay_details: SPR Biacore T200; mono-Fc VHH captured on Protein A chip, hIL10Rb-his analyte; 1:1 Langmuir fit
pKd: −log10 of the molar value.
quantity_name: pKd

binder="hIL-10Rb_VHH15 Mono-Fc (Fc fusion, Mono-Fc VHH captured on Protein A; not shown: mono-Fc part) QVQLQESGGGSVQAGGSLRLSCTVSRYTASVNYMGWFRQAPGKEREGVATIFTGAGTTYYANSVKGRFTISRDNAKNTAYLQMNSLKPEDTAIYYCAVDFRGGLLYRPAYEYTYRGQGTQVTVSS" reported=6.92
binder="hIL-10Rb_VHH26 Mono-Fc (Fc fusion, Mono-Fc VHH captured on Protein A; not shown: mono-Fc part) QVQLQESGGGSVQAGGSLRLSCAASGYSYSSYCMGWFRQAPGKEREGVATIDSDGMTRYADSVKGRFTISKDNAKNTLYLQMNSLKPEDTAMYYCAAPLYDCDSGAVGRNPPYWGQGTQVTVSS" reported=6.50
